// data source = PubChem BioAssay

target: Voltage-gated potassium channel subunit beta-2 (Rattus norvegicus); experiment: inhibitors of rat Kvbeta2 reductase activity – biochemical, NADPH fluorescence, primary screen (AID 622); details: recombinant KvBeta, 4-cyanobenzaldehyde reduction, at 10 µM, stronger effect = higher value;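 further: slope of raw intensity against log time taken from 70 to 1610 s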
Listed below: fluorescence slope values for each entry.
measured-property: fluorescence slope

- compound: "CC1Cc2ccccc2N1C(=O)c1cccnc1 (stereo unspecified)"
  test-system: "Voltage-gated potassium channel subunit beta-2 (Rattus norvegicus)"
  measured-property: "fluorescence slope"
  readout-number: -0.422
- compound: "O=C(NCCCN1CCCC1=O)C1CCN(S(=O)(=O)N2CCOCC2)CC1"
  test-system: "Voltage-gated potassium channel subunit beta-2 (Rattus norvegicus)"
  measured-property: "fluorescence slope"
  readout-number: -0.362
- compound: "O=c1oc2ccccc2n1CCc1ccccc1"
  test-system: "Voltage-gated potassium channel subunit beta-2 (Rattus norvegicus)"
  measured-property: "fluorescence slope"
  readout-number: -0.522
- compound: "CN1CCc2c(sc3c2C(=O)NC(c2cccc(OC(=O)c4cccs4)c2)N3)C1 (stereo unspecified)"
  test-system: "Voltage-gated potassium channel subunit beta-2 (Rattus norvegicus)"
  measured-property: "fluorescence slope"
  readout-number: -0.422
- compound: "CCc1ccc(NC(=O)CS(=O)CC(=O)NC(C)CCc2ccco2)cc1 (stereo unspecified)"
  test-system: "Voltage-gated potassium channel subunit beta-2 (Rattus norvegicus)"
  measured-property: "fluorescence slope"
  readout-number: -0.484
- compound: "CCSC1(SCC)N=C(N)C2(C#N)C(c3ccccc3)NC(C)=C(C)C12C#N (stereo unspecified)"
  test-system: "Voltage-gated potassium channel subunit beta-2 (Rattus norvegicus)"
  measured-property: "fluorescence slope"
  readout-number: -0.401
- compound: "Cc1ccc(C)c(N2CCN(CCCNC(=O)Cn3cc4c(n3)CCC(C)C4)CC2)c1 (stereo unspecified)"
  test-system: "Voltage-gated potassium channel subunit beta-2 (Rattus norvegicus)"
  measured-property: "fluorescence slope"
  readout-number: -0.574
- compound: "CCOC(=O)c1cccc(NC(=O)CSc2nc3cccnc3n2C)c1"
  test-system: "Voltage-gated potassium channel subunit beta-2 (Rattus norvegicus)"
  measured-property: "fluorescence slope"
  readout-number: -0.526
- compound: "O=C(COC(=O)C1=COCCO1)Nc1ccccc1Oc1ccccc1"
  test-system: "Voltage-gated potassium channel subunit beta-2 (Rattus norvegicus)"
  measured-property: "fluorescence slope"
  readout-number: -0.541
- compound: "Cc1nc(-c2ccc(NC(=O)c3cccs3)cc2)cs1"
  test-system: "Voltage-gated potassium channel subunit beta-2 (Rattus norvegicus)"
  measured-property: "fluorescence slope"
  readout-number: -0.427
- compound: "Cc1cc(Cl)c(S(=O)(=O)N2CCN(c3ccc(F)cc3)CC2)cc1OCC(N)=O"
  test-system: "Voltage-gated potassium channel subunit beta-2 (Rattus norvegicus)"
  measured-property: "fluorescence slope"
  readout-number: -0.587
